species: Homo sapiens; assay: Selectivity index, ratio of Ki for CB1 receptor (unknown origin) to Ki for CB2 receptor (unknown origin)
Please go through the items and note down their Ratio Ki.

{"columns": ["smiles-structure", "result"],
 "data": [
  ["CCN(CC)c1ccc(CN(C(=O)Cc2ccccc2)c2ccc(C)cc2)cc1", "> 277"]
]}

Take each entry in turn and give its Ratio Ki.
1. CCN(CC)c1ccc(CN(C(=O)C2CCCCC2)[C@]23C[C@H]4C[C@H](C[C@H](C4)C2)C3)cc1
2. CCN(CC)c1ccc(CN(C(=O)Cc2ccccc2)[C@]23C[C@H]4C[C@H](C[C@H](C4)C2)C3)cc1
3. CCN(CC)c1ccc(CN(c2ccc(Cl)cc2)S(=O)(=O)c2ccc(OC)cc2)cc1

[out]
> 571
> 333
> 1430
